# Test system: HCT-116 colon
# protocol-details: NCI tumour cell line growth inhibition, 48 h; in the data active = GI50 below about 0.43 µM; inactive = the rest
Select the correct class. Options are active, inactive and nothing else.

Can you look up the reported call for `NCC(=O)Nc1ccc(-n2nc(C(F)(F)F)cc2-c2ccc3c(ccc4ccccc43)c2)cc1` for me?
inactive

Look up the recorded call for CCCCC(SC(=S)N(CC)CC)C(=O)Nc1nc(CC(=O)OCC)cs1 (stereo unspecified) in this test.
inactive

Assay result, entry NC(=O)c1ncn(C2OC(CO)C(O)C2O)n1 (stereo unspecified) — outcome?
inactive

Recorded call for `COc1ccc(S(=O)(=O)Nc2cc(/C=C\c3cc(OC)c(OC)c(OC)c3)cc(OC)c2OC)cc1OC` ?
inactive

Tell me the assay call for `COc1cc(C2=Nc3c/c(=C\c4c(O)[nH]c5ccc(Cl)cc45)ccc3=N2)cc(OC)c1OC` please.
inactive

I'd appreciate the recorded outcome for `CCCCCCCCCCCCCCCCCC(=O)[O][Sn]([CH2]CCC)([CH2]CCC)[CH2]CCC` from this test.
active

Hi team, can someone confirm the assay call for `CN(C)c1cc2c(Nc3ccc4nc(Cc5ccccc5)[nH]c4c3)ncnc2cn1` ?
inactive

Tell me the assay call for `COc1ccc(C2=C(Br)C(=O)OC2)cc1Cl` please.
inactive

Name the outcome recorded for `O=C(/C=C/c1ccccc1O)c1ccccc1` in the assay.
inactive

Any idea what this test logged for `NC(=O)c1cccc(N)c1` ?
inactive

Query: recorded result category for `NC(=O)Cc1ccccc1Oc1nccc(-c2c(-c3ccc(F)cc3)ncn2C2CCNCC2)n1` in this test
inactive
